target: Opioid receptors; mu & delta (UniProt P41143+P35372); assay: Selectivity ratio measured in terms of delta opioid receptor to the mu opioid receptor; format: protein assay; conditions: Cavia porcellus
Sequence (P35372 whole entry, looked up): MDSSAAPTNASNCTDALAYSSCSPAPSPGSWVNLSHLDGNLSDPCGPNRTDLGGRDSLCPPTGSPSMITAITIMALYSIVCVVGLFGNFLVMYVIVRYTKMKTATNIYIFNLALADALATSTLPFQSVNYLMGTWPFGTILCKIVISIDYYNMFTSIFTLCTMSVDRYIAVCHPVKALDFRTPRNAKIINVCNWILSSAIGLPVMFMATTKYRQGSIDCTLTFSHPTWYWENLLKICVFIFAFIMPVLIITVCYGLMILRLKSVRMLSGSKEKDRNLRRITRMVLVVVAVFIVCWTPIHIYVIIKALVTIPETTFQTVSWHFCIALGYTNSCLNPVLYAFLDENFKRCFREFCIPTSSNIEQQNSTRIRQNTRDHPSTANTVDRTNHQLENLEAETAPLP
Sequence (P41143 whole entry, looked up): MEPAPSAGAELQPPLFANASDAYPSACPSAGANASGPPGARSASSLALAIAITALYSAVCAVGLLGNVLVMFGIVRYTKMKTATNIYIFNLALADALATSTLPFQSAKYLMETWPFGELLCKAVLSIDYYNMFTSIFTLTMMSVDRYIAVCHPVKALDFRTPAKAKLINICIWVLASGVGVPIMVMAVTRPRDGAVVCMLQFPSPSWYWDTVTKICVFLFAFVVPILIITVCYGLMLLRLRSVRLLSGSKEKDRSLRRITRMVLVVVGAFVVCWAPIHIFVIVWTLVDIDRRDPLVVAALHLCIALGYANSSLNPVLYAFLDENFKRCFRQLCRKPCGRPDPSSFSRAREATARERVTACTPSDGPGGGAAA
OBSERVATION TYPE: Selectivity ratio

Would you please look over these solved cases?
1. O=C1/C(=C/c2ccc3ccccc3c2)C[C@@]2(O)[C@H]3Cc4ccc(O)c5c4C2(CCN3CC2CC2)[C@H]1O5: 0.6
2. O=C1/C(=C\c2ccccc2)C[C@@]2(O)[C@H]3Cc4ccc(O)c5c4[C@@]2(CCN3CC2CC2)[C@H]1O5: 8.6
3. O=C1/C(=C/c2c3ccccc3cc3ccccc23)C[C@@]2(O)[C@H]3Cc4ccc(O)c5c4C2(CCN3CC2CC2)[C@H]1O5: 6.4
4. O=C1/C(=C/c2ccccc2)C[C@@]2(O)[C@H]3Cc4ccc(O)c5c4[C@@]2(CCN3CC2CC2)[C@H]1O5: 4
5. O=C1/C(=C\c2cccc3ccccc23)C[C@@]2(O)[C@H]3Cc4ccc(O)c5c4C2(CCN3CC2CC2)[C@H]1O5: 15

QUERY: What measured Selectivity ratio is associated with `O=C1/C(=C/c2ccc(-c3ccccc3)cc2)C[C@@]2(O)[C@H]3Cc4ccc(O)c5c4C2(CCN3CC2CC2)[C@H]1O5` on Opioid receptors; mu & delta (UniProt P41143+P35372)?
RESULT: 0.6

QUERY: What measured Selectivity ratio is associated with `O=C1/C(=C\c2ccc(-c3ccccc3)cc2)C[C@@]2(O)[C@H]3Cc4ccc(O)c5c4C2(CCN3CC2CC2)[C@H]1O5` on Opioid receptors; mu & delta (UniProt P41143+P35372)?
RESULT: 4.2

###

Item-by-item account of Selectivity ratio
target: Opioid receptors; mu & delta (UniProt P41143+P35372); assay: Selectivity ratio measured in terms of delta opioid receptor to the mu opioid receptor; type: protein assay; details: Cavia porcellus
Enter the number alone.

1. O=C1/C(=C\c2c3ccccc3cc3ccccc23)C[C@@]2(O)[C@H]3Cc4ccc(O)c5c4C2(CCN3CC2CC2)[C@H]1O5: 14

QUERY: Form field: reported Selectivity ratio of `O=C1/C(=C/c2cccc3ccccc23)C[C@@]2(O)[C@H]3Cc4ccc(O)c5c4C2(CCN3CC2CC2)[C@H]1O5`
RESULT: 7.5

QUERY: Form field: reported Selectivity ratio of `CC(C)CN1CCC23c4c5ccc(O)c4O[C@H]2C(=O)/C(=C\c2ccc4ccccc4c2)C[C@@]3(O)[C@H]1C5`
RESULT: 3
